Assayed System: T1, EsCas13d, nuclease-dead (Eubacterium siraeum, UniProt B0MS50, R295A;H300A;R849A;H854A)
T1 sequence: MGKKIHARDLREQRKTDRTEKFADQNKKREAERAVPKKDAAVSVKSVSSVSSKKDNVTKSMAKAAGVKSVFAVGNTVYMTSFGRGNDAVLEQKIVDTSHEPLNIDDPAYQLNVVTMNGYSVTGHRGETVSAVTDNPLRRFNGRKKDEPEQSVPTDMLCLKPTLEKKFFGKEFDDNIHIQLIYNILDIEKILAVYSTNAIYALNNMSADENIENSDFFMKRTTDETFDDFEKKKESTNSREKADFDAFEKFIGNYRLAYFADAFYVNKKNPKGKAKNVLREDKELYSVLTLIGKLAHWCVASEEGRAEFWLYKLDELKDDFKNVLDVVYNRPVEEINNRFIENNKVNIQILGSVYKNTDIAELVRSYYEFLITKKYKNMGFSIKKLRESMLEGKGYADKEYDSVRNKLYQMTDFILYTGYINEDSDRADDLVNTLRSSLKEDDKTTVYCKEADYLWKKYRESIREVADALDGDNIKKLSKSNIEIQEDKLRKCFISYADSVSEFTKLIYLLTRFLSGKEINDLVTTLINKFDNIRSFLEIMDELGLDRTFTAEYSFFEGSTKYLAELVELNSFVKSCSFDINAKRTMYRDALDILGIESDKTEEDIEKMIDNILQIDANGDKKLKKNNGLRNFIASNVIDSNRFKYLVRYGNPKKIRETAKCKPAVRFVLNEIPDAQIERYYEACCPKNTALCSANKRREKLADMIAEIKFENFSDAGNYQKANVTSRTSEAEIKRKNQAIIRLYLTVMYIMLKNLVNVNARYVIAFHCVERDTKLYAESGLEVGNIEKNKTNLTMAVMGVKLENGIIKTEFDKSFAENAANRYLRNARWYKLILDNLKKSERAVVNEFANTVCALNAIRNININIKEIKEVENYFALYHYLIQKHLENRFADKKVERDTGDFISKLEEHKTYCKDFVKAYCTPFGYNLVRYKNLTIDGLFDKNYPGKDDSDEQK
Assay Summary: crRNA (strand 1, pre-loaded); Mg2+; 40 mM Tris-HCl pH 7.5, 150 mM NaCl, 6 mM MgCl2, 1 mM DTT, 0.1% Tween-20, 0.2 mg/ml BSA; 25 C; 10 min per concentration, then washed
Condition Parameters: tags: His6-TwinStrep-SUMO cleaved; N-terminal SNAP kept (SNAP-Surface 488); label: 3' end held by stalled T7 RNA polymerase
Sorting guide: entries reporting Kd beneath 10 nM go in the fulfilled pile, the rest go in the not fulfilled pile.

Before answering, review these 5 worked examples.
target 3 C1A,G3A (mixed) RNA 1: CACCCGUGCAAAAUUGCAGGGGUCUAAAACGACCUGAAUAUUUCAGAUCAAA RNA 2: GGGAAUGGAUCCACAUCUACGAAUUCGUUUUUGAUCUGAAAUAUUCAGAUAUGCAGAUCGGAAGAGCACACGU ... not fulfilled
target 1 MT 5'PFS GUU 3'PFS CCA (mixed) RNA 1: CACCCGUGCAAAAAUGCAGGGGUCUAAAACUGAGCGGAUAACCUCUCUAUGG RNA 2: GGGAAUGGAUCCACAUCUACGAAUUCGUUCCAUAGAGAGGUUAUCCGCUCACCAAGAUCGGAAGAGCACACGU ... not fulfilled
target 1 C6A,G15U (mixed) RNA 1: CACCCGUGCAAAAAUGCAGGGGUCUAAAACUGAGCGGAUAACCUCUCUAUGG RNA 2: GGGAAUGGAUCCACAUCUACGAAUUCGUACCAUAGAUAGGUUAUCAGCUCACCGAGAUCGGAAGAGCACACGU ... not fulfilled
target 2 MT 5'PFS AGC 3'PFS AGC (mixed) RNA 1: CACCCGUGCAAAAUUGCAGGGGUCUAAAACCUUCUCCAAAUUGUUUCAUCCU RNA 2: GGGAAUGGAUCCACAUCUACGAAUUCAGCAGGAUGAAACAAUUUGGAGAAGAGCAGAUCGGAAGAGCACACGU ... fulfilled
target 1 insG 3' of 21,insG 3' of 7 (mixed) RNA 1: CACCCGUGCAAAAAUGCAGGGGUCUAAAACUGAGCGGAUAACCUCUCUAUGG RNA 2: GGGAAUGGAUCCACAUCUACGAAUUCGUACCGAUAGAGAGGUUAUCGCGCUCACCGAGAUCGGAAGAGCACACGU ... not fulfilled

Task: Given the entry target 1 insA 3' of 17,insA 3' of 7 (mixed) RNA 1: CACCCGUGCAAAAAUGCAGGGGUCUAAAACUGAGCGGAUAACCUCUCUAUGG RNA 2: GGGAAUGGAUCCACAUCUACGAAUUCGUACCAUAGAAGAGGUUAUCACGCUCACCGAGAUCGGAAGAGCACACGU , would its reported Kd be below 10 nM?
Output: not fulfilled

Task: Given the entry target 1 insA 3' of 5 (mixed) RNA 1: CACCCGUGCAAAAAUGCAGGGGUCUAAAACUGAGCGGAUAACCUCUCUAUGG RNA 2: GGGAAUGGAUCCACAUCUACGAAUUCGUACCAUAGAGAGGUUAUCCGACUCACCGAGAUCGGAAGAGCACACGU , would its reported Kd be below 10 nM?
Output: fulfilled

Task: Given the entry target 1 MT 5'PFS GUA 3'PFS AUG (mixed) RNA 1: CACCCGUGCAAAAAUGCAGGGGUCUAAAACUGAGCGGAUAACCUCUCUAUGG RNA 2: GGGAAUGGAUCCACAUCUACGAAUUCGUACCAUAGAGAGGUUAUCCGCUCAAUGAGAUCGGAAGAGCACACGU , would its reported Kd be below 10 nM?
Output: not fulfilled
